- target or test system: phosphorylation levels of ERK1/2 in AsPC-1 (homozygous KRAS-G12D) cells (Homo sapiens, UniProt P01116, G12D)
- Sequence (P01116 1-186 G12D): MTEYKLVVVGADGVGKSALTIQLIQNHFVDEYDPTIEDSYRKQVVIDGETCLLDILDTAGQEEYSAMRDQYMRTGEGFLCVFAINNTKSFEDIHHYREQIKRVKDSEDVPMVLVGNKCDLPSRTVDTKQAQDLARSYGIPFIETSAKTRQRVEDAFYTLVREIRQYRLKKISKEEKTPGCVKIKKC
- test details: Cellular phospho-ERK assay in AsPC-1 cells (Alpha Screen), assay medium without fetal bovine serum
- particulars: phospho-ERK AlphaScreen, 18 h
*1 amine or outer side, *2 acyl side, *3 side chain or, on linkers, in order; H or OH if unused. Where a SMILES comes first, the peptide text is derived from it. [ ]: non-standard residue; d: D form. Ala(pyrimidin-5-yl) = N[C@@H](Cc1cncnc1)C(=O)O; NMePhe(3-Me) = CN[C@@H](Cc1cccc(C)c1)C(=O)O; X42 = O=C([C@H](Cc1cc(F)ncc1F)N[*:1])[*:2]; X15 = O=C([C@H](Cc1cnccc1F)N[*:1])[*:2]; X1 = O=C(C12CC(CN[*:1])(C1)C2)[*:2]; Ala(cPr) = N[C@@H](CC1CC1)C(=O)O; NMeF = CN[C@@H](Cc1ccccc1)C(=O)O; PhLac = O=C(O)[C@@H](O)Cc1ccccc1; hLeu = CC(C)CC[C@H](N)C(=O)O; NMeA = CN[C@@H](C)C(=O)O
I'd be grateful if you could share measured EC50 for these entries.
Numbers only, in nM.

compound: Cc1cccc(C[C@H]2C(=O)NCC34CC(C3)(C4)C(=O)O[C@@H](Cc3ccccc3)C(=O)N(C)[C@@H](C)C(=O)N[C@@H](Cc3cncnc3)C(=O)N[C@@H](CC3CC3)C(=O)N[C@@H](Cc3cnccc3F)C(=O)N[C@@H](CCC(C)C)C(=O)N2C)c1 [compound 278] (cyclo([Ala(cPr)][X15][hLeu][NMePhe(3-Me)][X1][PhLac][NMeA][Ala(pyrimidin-5-yl)]))
numeric readout: 4000

Sample CC(C)CC[C@@H]1NC(=O)[C@H](Cc2cc(F)ncc2F)NC(=O)[C@H](CC2CC2)NC(=O)[C@H](Cc2cncnc2)NC(=O)[C@H](C)N(C)C(=O)[C@H](Cc2ccccc2)OC(=O)C23CC(CNC(=O)[C@H](Cc4ccccc4)N(C)C1=O)(C2)C3 [compound 280] (cyclo([Ala(cPr)][X42][hLeu][NMeF][X1][PhLac][NMeA][Ala(pyrimidin-5-yl)])) — what was its EC50?
1230

###

- target or test system: phosphorylation levels of ERK1/2 in AsPC-1 (homozygous KRAS-G12D) cells (Homo sapiens, UniProt P01116, G12D)
- test details: Cellular phospho-ERK assay in AsPC-1 cells (Alpha Screen), assay medium without fetal bovine serum;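 also: signal taken as phospho-ERK over total ERK per well, both detected in one multiplex bead assay, EC50 from four-parameter logistic fit of dose-response curves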
- particulars: phospho-ERK AlphaScreen, 18 h
*1 amine or outer side, *2 acyl side, *3 side chain or, on linkers, in order; H or OH if unused. Where a SMILES comes first, the peptide text is derived from it. Bridges are numbered along the chain shown (N, C = ends). [ ]: non-standard residue; d: D form. X23 = O=C([C@H](Cc1ccc(C(F)(F)F)nc1)N[*:1])[*:2]; X22 = CNC(=N)N(C)CCC[C@@H](C(=O)[*:2])N(C)[*:1]; NMeAha = CN[C@@H](CCN=[N+]=[N-])C(=O)O; Phe(2-F) = N[C@@H](Cc1ccccc1F)C(=O)O; NMe3Pal = CN[C@@H](Cc1cccnc1)C(=O)O; X1 = O=C(C12CC(CN[*:1])(C1)C2)[*:2]; PhLac = O=C(O)[C@@H](O)Cc1ccccc1; 3Pal = N[C@@H](Cc1cccnc1)C(=O)O; αMeC = C[C@](N)(CS)C(=O)O; Nle = CCCC[C@H](N)C(=O)O
property label: EC50

For every item below, please supply its EC50.
1. CCCC[C@@H]1NC(=O)[C@H](Cc2ccc(C(F)(F)F)nc2)NC(=O)[C@H](CCN=[N+]=[N-])N(C)C(=O)[C@H](Cc2ccccc2)OC(=O)C23CC(CNC(=O)[C@H](Cc4cccnc4)N(C)C(=O)[C@H](CCCC)NC(=O)[C@H](Cc4ccccc4F)NC1=O)(C2)C3 [compound 241] (cyclo([NMe3Pal][X1][PhLac][NMeAha][X23][Nle][Phe(2-F)][Nle]))
2. CCCC[C@@H]1NC(=O)[C@H](Cc2ccc(O)cc2)NC(=O)[C@H](CC2CCCCC2)NC(=O)[C@H](CCCCN)NC(=O)[C@H](CCCNC(=N)N)NC(=O)[C@H](Cc2cccc3ccccc23)NC(=O)CSC[C@H](C(N)=O)NC(=O)[C@H](Cc2ccccc2)N(C)C1=O
3. CCCC[C@@H]1NC(=O)[C@H](Cc2cccnc2)NC(=O)[C@H](CCCN(C)C(=N)NC)N(C)C(=O)[C@H](Cc2ccccc2)OC(=O)CSC[C@@](C)(C(N)=O)NC(=O)[C@H](Cc2cccnc2)N(C)C(=O)[C@H](CCCC)NC(=O)[C@H](Cc2ccccc2F)NC1=O [compound 396] ({CH2CO}-[PhLac][X22][3Pal][Nle][Phe(2-F)][Nle][NMe3Pal][αMeC]-NH2; thioether N-8)

1. 6.12 µM
2. > 50.8 µM
3. > 50.8 µM
